System: Peritoneal macrophage cell
Experiment Notes: Antiinflammatory activity in C57BL6J mouse peritoneal macrophages assessed as inhibition of LPS-stimulated TNFalpha secretion at 10 uM after 24 hrs by MTT assay
Type: functional, cell-based
Calls of active or inactive are those of the source. The calls are words filed in the database; no cut-off is given here.
Measure Name: Activity

1. CC(C)(O)/C=C/C(=O)[C@](C)(O)[C@H]1[C@H](O)C[C@@]2(C)[C@@H]3CC=C4[C@@H](C=C(O[C@@H]5O[C@H](CO)[C@@H](O)[C@H](O)[C@H]5O)C(=O)C4(C)C)[C@]3(C)C(=O)C[C@]12C = inactive
2. CC(=O)OC(C)(C)/C=C/C(=O)[C@](C)(O)[C@H]1[C@H](O)C[C@@]2(C)[C@@H]3CC=C4[C@@H](C=C(O[C@@H]5O[C@H](CO)[C@@H](O)[C@H](O)[C@H]5O)C(=O)C4(C)C)[C@]3(C)C(=O)C[C@]12C = inactive
